tested on: Bacillus cereus 33018; test: agar disc-diffusion antibacterial assay; type: cell-based; conditions: B. cereus 33018, disc loaded with 100 μg, 37 °C, 24 h, read-out: diameter of inhibition zone
Below, each entry is listed alongside its reported zone of inhibition at 100 µg/disc.
Reply numerically in mm, unit not repeated.

Example cases with answers are listed next.
{"MOL SMILES": "NC(=O)c1sc2nc(-c3ccco3)cc(-c3cccs3)c2c1N", "UNITS TEXT": "mm", "READING": 18}
{"MOL SMILES": "CC1=NN=C(Nc2c3c(nc4c2sc2nc(-c5ccco5)cc(-c5cccs5)c24)CCCC3)C1", "UNITS TEXT": "mm", "READING": 17}
{"MOL SMILES": "COc1ccc(-c2cc(-c3ccco3)nc3sc4c(NC(=O)CN5CCOCC5)c5c(nc4c23)CCCC5)cc1", "UNITS TEXT": "mm", "READING": 16}

Query compound follows.
Value lookup for zone of inhibition at 100 µg/disc; key = COc1ccc(-c2cc(-c3ccco3)nc3sc(C(N)=O)c(N)c23)cc1
13

* * *

Below, each entry is listed alongside its reported melting point.
Reply numerically in °C, unit not repeated.

Example cases with answers are listed next.
{"MOLECULE": "COc1ccc(-c2cc(-c3ccco3)nc3sc4c(N=Cc5cccs5)c5c(nc4c23)CCCC5)cc1 [Compound 12b]", "READING": 114}
{"MOLECULE": "N#Cc1c(-c2cccs2)cc(-c2ccco2)nc1SCC(N)=O", "READING": 242}

Value lookup for melting point; key = NC(=O)c1sc2nc(-c3ccco3)cc(-c3cccs3)c2c1N
253

* * *

Below, each entry is listed alongside its reported melting point.

{"MOL SMILES": "COc1ccc(-c2cc(-c3ccco3)nc3sc4c(NS(=O)(=O)c5ccccc5)c5c(nc4c23)CCCC5)cc1", "MEASURE": "melting point", "READING": "303 to 304 °C"}
{"MOL SMILES": "CC(=O)CC(=O)Nc1c2c(nc3c1sc1nc(-c4ccco4)cc(-c4cccs4)c13)CCCC2", "MEASURE": "melting point", "READING": "217 to 218 °C"}
{"MOL SMILES": "COc1ccc(-c2cc(-c3ccco3)nc3sc4c(NC(=O)Nc5ccccc5)c5c(nc4c23)CCCC5)cc1", "MEASURE": "melting point", "READING": "118 to 120 °C"}

Query compound follows.
Value lookup for melting point; key = COc1ccc(-c2cc(-c3ccco3)nc3sc4c(NC(=O)CN5CCN(C)CC5)c5c(nc4c23)CCCC5)cc1
158 to 159 °C
